biological target: GST-tagged human ROCK2 catalytic domain 1-553 (Homo sapiens (Human), UniProt O75116); experiment: Inhibition of Rho-associated protein kinase isoform 2 (LANCE Ultra ULight-CREBtide FRET kinase assay); format: biochemical; settings: selectivity ROCK2 vs ROCK1
Sequence (O75116 1-553): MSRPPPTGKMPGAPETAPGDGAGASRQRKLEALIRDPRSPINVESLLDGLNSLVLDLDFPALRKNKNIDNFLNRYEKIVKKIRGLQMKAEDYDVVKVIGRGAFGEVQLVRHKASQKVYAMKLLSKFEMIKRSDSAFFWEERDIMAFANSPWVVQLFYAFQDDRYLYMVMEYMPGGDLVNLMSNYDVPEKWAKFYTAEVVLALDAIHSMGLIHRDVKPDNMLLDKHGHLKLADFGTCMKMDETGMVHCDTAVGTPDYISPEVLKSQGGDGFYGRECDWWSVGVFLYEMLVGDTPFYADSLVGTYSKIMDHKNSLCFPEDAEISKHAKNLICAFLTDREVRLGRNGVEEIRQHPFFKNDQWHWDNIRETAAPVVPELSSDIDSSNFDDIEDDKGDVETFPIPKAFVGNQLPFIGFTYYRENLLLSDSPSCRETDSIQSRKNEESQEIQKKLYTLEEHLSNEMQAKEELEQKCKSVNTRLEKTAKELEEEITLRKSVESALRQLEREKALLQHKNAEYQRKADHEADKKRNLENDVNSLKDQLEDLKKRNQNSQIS
Below is a list of entries, each paired with its recorded Selectivity for ROCK2 over ROCK1 (IC50 ROCK1 / IC50 ROCK2) value.

Recorded results for 3 compounds are shown here.
1) CC(C(=O)Nc1cccc(-c2nnc(Nc3ccc4[nH]ncc4c3Cl)s2)c1)c1ccccn1 (stereo not shown) [Example 35AH]	<5
2) O=C(O)C(F)(F)F.O=C(O)CS(=O)(=O)Nc1cccc(-c2nnc(Nc3ccc4[nH]ncc4c3)s2)c1 [Example 35CD]	<5
3) CN1C(=O)Cc2c(-c3nnc(Nc4ccc5[nH]ncc5c4Cl)s3)cccc21.O=C(O)C(F)(F)F	>5

Alright, here's another compound for you.
Need Selectivity for ROCK2 over ROCK1 (IC50 ROCK1 / IC50 ROCK2) of CCn1cc(C(=O)Nc2cccc(-c3nnc(Nc4ccc5[nH]ncc5c4)s3)c2)cn1 , thanks.
>5

====

biological target: GST-tagged human ROCK1 catalytic domain 1-477 (Homo sapiens (Human), UniProt Q13464); assay: Inhibition of Rho-associated protein kinase isoform 1 (LANCE Ultra ULight-CREBtide FRET kinase assay); type: biochemical; conditions: 30 μM was the highest concentration analyzed
Sequence (Q13464 1-477): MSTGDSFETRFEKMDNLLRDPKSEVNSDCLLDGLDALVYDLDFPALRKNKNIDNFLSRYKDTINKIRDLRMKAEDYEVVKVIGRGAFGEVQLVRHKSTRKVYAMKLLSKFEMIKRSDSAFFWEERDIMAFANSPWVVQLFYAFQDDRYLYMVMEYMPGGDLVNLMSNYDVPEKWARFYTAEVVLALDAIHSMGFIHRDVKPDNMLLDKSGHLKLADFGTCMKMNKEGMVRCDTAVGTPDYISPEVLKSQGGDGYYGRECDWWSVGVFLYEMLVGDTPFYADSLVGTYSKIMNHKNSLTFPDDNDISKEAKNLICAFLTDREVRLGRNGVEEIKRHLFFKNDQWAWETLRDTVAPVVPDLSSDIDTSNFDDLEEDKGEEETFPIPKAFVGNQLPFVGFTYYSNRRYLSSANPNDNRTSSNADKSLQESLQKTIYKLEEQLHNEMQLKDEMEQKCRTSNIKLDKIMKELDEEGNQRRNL
parameter-measured: IC50

Need IC50 of CC(=O)Nc1cccc(-c2nnc(N(C)c3ccc4[nH]ncc4c3Cl)s2)c1 [Example 35BC] , thanks.
> 30 µM

Next: Cn1cc(C(=O)Nc2cc(C(=O)O)cc(-c3nnc(Nc4ccc5[nH]ncc5c4Cl)s3)c2)cn1 [Example 48AC]
< 1 µM

Next: CCCOC(=O)Nc1cc(-c2nnc(Nc3ccc4[nH]ncc4c3Cl)s2)ccn1.O=C(O)C(F)(F)F [Example 35F]
> 30 µM

Next: CC(=O)Cc1cccc(-c2nnc(Nc3ccc4[nH]ncc4c3Cl)s2)c1 [Example 35AF]
1 to 15 µM

====

Below is a list of entries, each paired with its recorded Selectivity for ROCK2 over ROCK1 (IC50 ROCK1 / IC50 ROCK2) value.
biological target: GST-tagged human ROCK2 catalytic domain 1-553 (Homo sapiens (Human), UniProt O75116); test: Inhibition of Rho-associated protein kinase isoform 2 (LANCE Ultra ULight-CREBtide FRET kinase assay); format: biochemical; settings: selectivity ROCK2 vs ROCK1

Recorded results for 5 compounds are shown here.
1. CCS(=O)(=O)Nc1cccc(-c2nnc(Nc3ccc4[nH]ncc4c3)s2)c1 [Example A-8]	>5
2. O=C(Nc1cccc(-c2nnc(Nc3ccc4[nH]ncc4c3)s2)c1)c1cnn(CCO)c1 [Example A-20]	>100
3. CN1CCN(c2cccc(-c3nnc(Nc4ccc5[nH]ncc5c4Cl)s3)c2)C(=O)C1 [Example 42]	>5
4. Fc1cc(-c2ncco2)cc(-c2nnc(Nc3ccc4[nH]ncc4c3Cl)s2)c1 [Example 46J]	>100
5. CC(=O)Nc1cccc(-c2nnc(Nc3ccc4[nH]ncc4c3C)s2)c1 [Example 35J]	>5

Need Selectivity for ROCK2 over ROCK1 (IC50 ROCK1 / IC50 ROCK2) of CN(C)CC(=O)Nc1cncc(-c2nnc(Nc3ccc4[nH]ncc4c3)s2)c1 [Example A-3] , thanks.
<5

Next: COc1ccc(C(=O)Nc2cccc(-c3nnc(Nc4ccc5[nH]ncc5c4Cl)s3)c2)cc1 [Example 35BS]
<5

====

biological target: GST-tagged human ROCK2 catalytic domain 1-553 (Homo sapiens (Human), UniProt O75116); test: Inhibition of Rho-associated protein kinase isoform 2 (LANCE Ultra ULight-CREBtide FRET kinase assay); format: biochemical; conditions: 30 μM was the highest concentration analyzed
parameter-measured: IC50

Recorded results for 5 compounds are shown here.
1) CC(=O)Nc1ccc(C)c(-c2nnc(Nc3ccc4[nH]ncc4c3Cl)s2)c1.O=C(O)C(F)(F)F [Example 48I]	< 1 µM
2) CC1(C)COC(c2cccc(-c3nnc(Nc4ccc5[nH]ncc5c4Cl)s3)c2)=N1 [Example 46F]	< 1 µM
3) O=C(NCC(O)CO)c1cccc(-c2nnc(Nc3ccc4[nH]ncc4c3)s2)c1 (stereo not shown)	1 to 15 µM
4) CC(C)NCC(=O)Nc1cncc(-c2nnc(Nc3ccc4[nH]ncc4c3)s2)c1	< 1 µM
5) CN1CCN(c2cc(-c3nnc(Nc4ccc5[nH]ncc5c4Cl)s3)ccn2)C1=O	< 1 µM

Need IC50 of FC(F)(F)c1nc2c(-c3nnc(Nc4ccc5[nH]ncc5c4Cl)s3)cc(Br)cn2n1 [Example 50B] , thanks.
< 1 µM

Next: Clc1c(Nc2nnc(-c3cccn4cc(C5CCCO5)nc34)s2)ccc2[nH]ncc12 (stereo not shown) [Example 50C]
< 1 µM

Next: Nc1cncc(-c2nnc(Nc3ccc4[nH]ncc4c3)s2)c1.O=C(O)C(F)(F)F [Example 35CS]
1 to 15 µM

Next: Nc1cccc(-c2nnc(Nc3ccc4[nH]ncc4c3)s2)c1
1 to 15 µM

Next: CC(C)C(=O)Nc1cccc(-c2nnc(Nc3ccc4[nH]ncc4c3Cl)s2)c1 [Example 35V]
< 1 µM

Next: CC1(C)CN=C(c2cccc(-c3nnc(Nc4ccc5[nH]ncc5c4Cl)s3)c2)O1 [Example 75Q]
< 1 µM

Next: O=C(Nc1cc(-c2nnc(Nc3ccc4[nH]ncc4c3Cl)s2)ccc1C(F)(F)F)c1cnn(CCO)c1 [Example 48M]
< 1 µM

Next: C[C@H](N)C(=O)Nc1cccc(-c2nnc(Nc3ccc4[nH]ncc4c3Cl)s2)c1 [Example 35AA]
< 1 µM

Next: Nc1cc(-c2nnc(Nc3ccc4[nH]ncc4c3)s2)ccn1.O=C(O)C(F)(F)F [Example 35CQ]
< 1 µM

Next: Cc1cnn(CC(=O)Nc2cccc(-c3nnc(N(C)c4ccc5[nH]ncc5c4Cl)s3)c2)c1 [Example 54C]
1 to 15 µM

Next: NCc1cncc(C(=O)Nc2cccc(-c3nnc(Nc4ccc5[nH]ncc5c4)s3)c2)c1.O=C(O)C(F)(F)F [Example 35CF]
< 1 µM

====

biological target: GST-tagged human ROCK2 catalytic domain 1-553 (Homo sapiens (Human), UniProt O75116); experiment: Inhibition of Rho-associated protein kinase isoform 2 (LANCE Ultra ULight-CREBtide FRET kinase assay); type: biochemical; settings: selectivity ROCK2 vs ROCK1
Below is a list of entries, each paired with its recorded Selectivity for ROCK2 over ROCK1 (IC50 ROCK1 / IC50 ROCK2) value.

1) c1cnc(-c2nnc(Nc3ccc4[nH]ncc4c3)s2)cn1 [Example A-25]	>5
2) Nc1cccc(-c2nsc(Nc3ccc4[nH]ncc4c3)n2)c1 [Example 35CU]	>5

Need Selectivity for ROCK2 over ROCK1 (IC50 ROCK1 / IC50 ROCK2) of CC(C)(C)CC(=O)Nc1cccc(-c2nnc(Nc3ccc4[nH]ncc4c3Cl)s2)c1 [Example 35M] , thanks.
>5

Next: CC(=O)Cc1cccc(-c2nnc(Nc3ccc4[nH]ncc4c3Cl)s2)c1 [Example 35AF]
>5

Next: CC(C)n1ccnc1-c1cccc(-c2nnc(Nc3ccc4[nH]ncc4c3Cl)s2)c1.O=C(O)C(F)(F)F [Example 46A]
>5

Next: Cn1cc(C(=O)Nc2cccc(-c3nnc(Nc4ccc5[nH]ncc5c4Cl)s3)c2)cn1 [Example A-11]
>100

====

biological target: GST-tagged human ROCK2 catalytic domain 1-553 (Homo sapiens (Human)); experiment: Inhibition of Rho-associated protein kinase isoform 2 (LANCE Ultra ULight-CREBtide FRET kinase assay); type: biochemical; conditions: 30 μM was the highest concentration analyzed
parameter-measured: IC50

1) Cc1cnoc1C(=O)Nc1cccc(-c2nnc(Nc3ccc4[nH]ncc4c3)s2)c1 [Example A-44]	< 1 µM
2) COc1ccc(CC(=O)Nc2cccc(-c3nnc(Nc4ccc5[nH]ncc5c4Cl)s3)c2)cc1 [Example 35BQ]	< 1 µM
3) CC(=O)Nc1cc(CO)cc(-c2nnc(Nc3ccc4[nH]ncc4c3Cl)s2)c1 [Example 48H]	< 1 µM

Give the reported IC50 for Brc1ccc(-c2cn3cccc(-c4nnc(Nc5ccc6[nH]ncc6c5)s4)c3n2)cc1 [Example 52G] (system: GST-tagged human ROCK2 catalytic domain 1-553 (Homo sapiens (Human))).
< 1 µM

Next: O=C(Nc1cccc(-c2nnc(Nc3ccc4[nH]ncc4c3Cl)s2)c1)N1CCNCC1 [Example 35T]
< 1 µM

Next: O=[N+]([O-])c1cccc(-c2nnc(Nc3ccc4[nH]ncc4c3)s2)c1 [Example 75O]
1 to 15 µM

====

molecular target: GST-tagged human ROCK2 catalytic domain 1-553 (Homo sapiens (Human), UniProt O75116); test: Inhibition of Rho-associated protein kinase isoform 2 (LANCE Ultra ULight-CREBtide FRET kinase assay); format: biochemical; conditions: 30 μM was the highest concentration analyzed
Below is a list of entries, each paired with its recorded IC50 value.

Recorded results for 8 molecules are shown here.
1) CC(=O)Cc1cccc(-c2nnc(Nc3ccc4[nH]ncc4c3Cl)s2)c1 [Example 35AF]	< 1 µM
2) c1cc(-c2ncco2)cc(-c2nnc(Nc3ccc4[nH]ncc4c3)s2)c1	< 1 µM
3) CC(=O)Nc1cc(CN(C)C)cc(-c2nnc(Nc3ccc4[nH]ncc4c3Cl)s2)c1.O=C(O)C(F)(F)F [Example 48C]	< 1 µM
4) O=[N+]([O-])c1cccc(-c2nnc(Nc3ccc4[nH]ncc4c3)s2)c1 [Example A-45]	1 to 15 µM
5) Cc1cccc(CNC(=O)c2cccc(-c3nnc(Nc4ccc5[nH]ncc5c4Cl)s3)c2)n1 [Example 75G]	< 1 µM
6) CC(=O)Nc1cc(C(=O)O)cc(-c2nnc(Nc3ccc4[nH]ncc4c3)s2)c1 [Example 48AE]	< 1 µM
7) O=C(O)c1cccc(-c2nnc(Nc3ccc4[nH]ncc4c3)s2)c1 [Example 35CL]	1 to 15 µM
8) O=C(Nc1cccc(-c2nnc(Nc3ccc4[nH]ncc4c3F)s2)c1)c1c[nH]cn1 [Example 75N]	> 30 µM

Need IC50 of O=C(Cc1ccc(F)cc1)Nc1cc(-c2nnc(Nc3ccc4[nH]ncc4c3Cl)s2)ccn1 [Example 35G] , thanks.
< 1 µM

Next: c1cc(-c2nnc(Nc3ccc4[nH]ncc4c3)s2)cc(N2CCNCC2)c1 [Example 75H]
1 to 15 µM

Next: Cn1cc(C(=O)Nc2cncc(-c3nnc(Nc4ccc5[nH]ncc5c4Cl)s3)c2)cn1 [Example 35BU]
< 1 µM

Next: CN1CCN(C(=O)Nc2ccc(-c3nnc(Nc4ccc5[nH]ncc5c4Cl)s3)cc2)CC1 [Example 75D]
< 1 µM

Next: N[C@@H](Cc1ccccc1)C(=O)Nc1cccc(-c2nnc(Nc3ccc4[nH]ncc4c3Cl)s2)c1 [Example 35AV]
< 1 µM

Next: Nc1cccc(-c2nnc(Nc3ccc4[nH]ncc4c3)s2)n1.O=C(O)C(F)(F)F [Example 35CR]
< 1 µM

Next: CC(=O)c1cc(-c2nnc(Nc3ccc4[nH]ncc4c3Cl)s2)ccn1 [Example 35CV]
< 1 µM

Next: Clc1c(Nc2nnc(-c3cncc(-c4ncco4)c3)s2)ccc2[nH]ncc12 [Example 46P]
< 1 µM
